Origin of the recorded values: patent US6706663B2

Reported Postemergence herbicidal rating, CHEAL values follow for various compounds
# Tested on: CHEAL (Chenopodium album)
# PROTOCOL_SUMMARY: Postemergence herbicidal evaluation
# Type: in vivo, L.
# APPLIED_CONDITIONS: rate 0.0320 kg/ha
Form: value (number only, do not type unit).

>>> measured_result("Cc1cccnc1-c1nsc2ccc(-n3c(=O)cc(C(F)(F)F)n(C)c3=O)cc12 [Compound 19]")
8.0
>>> measured_result("Cc1cccnc1-c1nsc2cc(F)c(N3C(=O)C4=C(CCCC4)C3=O)cc12 [Compound 46]")
6.0
>>> measured_result("Cn1c(C(F)(F)F)cc(=O)n(-c2ccc3snc(C4OCCS4)c3c2)c1=O (stereo not shown) [Compound 31]")
9.0
>>> measured_result("CCOC(=O)C1CS[C@H](c2nsc3ccc(-n4c(=O)cc(C(F)(F)F)n(C)c4=O)cc23)N1 (stereo partly shown) [Compound 2]")
9.0

Ask | Value lookup for Postemergence herbicidal rating, CHEAL; key = CC(=O)N1CCSC1c1nsc2ccc(-n3c(=O)cc(C(F)(F)F)n(C)c3=O)cc12 (stereo not shown) [Compound 29]
Reply | 9.0

Ask | Value lookup for Postemergence herbicidal rating, CHEAL; key = C[C@H]1OC(c2nsc3ccc(-n4c(=O)cc(C(F)(F)F)n(C)c4=O)cc23)O[C@@H]1C [Compound 48]
Reply | 9.0

Ask | Value lookup for Postemergence herbicidal rating, CHEAL; key = Cc1ccn(-c2nsc3ccc(-n4c(=O)cc(C(F)(F)F)n(C)c4=O)cc23)n1 [Compound 38]
Reply | 0.0

Ask | Value lookup for Postemergence herbicidal rating, CHEAL; key = Cc1ccc(-c2nsc3ccc(-n4c(=O)cc(C(F)(F)F)n(C)c4=O)cc23)nc1 [Compound 42]
Reply | 9.0

Ask | Value lookup for Postemergence herbicidal rating, CHEAL; key = Cc1ccc(-c2nsc3ccc(N4C(=O)C5=C(CCCC5)C4=O)cc23)s1 [Compound 20]
Reply | 3.0

* * *

# Tested on: CHEAL (Chenopodium album)
# PROTOCOL_SUMMARY: Preemergence herbicidal evaluation
# Type: in vivo, L.
# APPLIED_CONDITIONS: Rate 0.1250 kg/ha; preemergence; rated 4-5 weeks after treatment
MEASUREMENT_KIND: CHEAL preemergence herbicidal rating
Form: value (number only, do not type unit).

Record excerpt, results attached:
>>> measured_result("COc1ccsc1-c1nsc2ccc(-n3c(=O)cc(C(F)(F)F)n(C)c3=O)cc12")
9.0
>>> measured_result("Cn1c(C(F)(F)F)cc(=O)n(-c2ccc3snc(C4OCCCS4)c3c2)c1=O (stereo not shown)")
9.0
>>> measured_result("Cn1c(C(F)(F)F)cc(=O)n(-c2ccc3snc(C4OCCS4)c3c2)c1=O (stereo not shown)")
9.0
>>> measured_result("Cc1cscc1-c1nsc2ccc(-n3c(=O)cc(C(F)(F)F)n(C)c3=O)cc12")
9.0
>>> measured_result("Cn1c(C(F)(F)F)cc(=O)n(-c2ccc3snc(C4SCCS4)c3c2)c1=O")
9.0

Ask | Value lookup for CHEAL preemergence herbicidal rating; key = Cc1ccc(-c2nsc3ccc(-n4c(=O)cc(C(F)(F)F)n(C)c4=O)cc23)s1
Reply | 9.0

Ask | Value lookup for CHEAL preemergence herbicidal rating; key = Cn1ccnc1-c1nsc2ccc(-n3c(=O)cc(C(F)(F)F)n(C)c3=O)cc12
Reply | 9.0

* * *

# System: CASOB (Cassia obtusifolia)
# PROTOCOL_SUMMARY: Postemergence herbicidal evaluation
# Assay type: in vivo, L.
# APPLIED_CONDITIONS: rate 0.0620 kg/ha
Reported Postemergence herbicidal rating, CASOB values follow for various molecules

Ask | Value lookup for Postemergence herbicidal rating, CASOB; key = Cc1cc(C)c(-c2nsc3ccc(-n4c(=O)cc(C(F)(F)F)n(C)c4=O)cc23)s1
Reply | 3.0

Ask | Value lookup for Postemergence herbicidal rating, CASOB; key = Cc1cccnc1-c1nsc2cc(F)c(-n3c(=O)cc(C(F)(F)F)n(C)c3=O)cc12
Reply | 4.0

Ask | Value lookup for Postemergence herbicidal rating, CASOB; key = Cc1cscc1-c1nsc2ccc(-n3c(=O)cc(C(F)(F)F)n(C)c3=O)cc12
Reply | 9.0

Ask | Value lookup for Postemergence herbicidal rating, CASOB; key = Cc1ccc(-c2nsc3ccc(N4C(=O)C5=C(CCCC5)C4=O)cc23)s1
Reply | 1.0

Ask | Value lookup for Postemergence herbicidal rating, CASOB; key = CC(=O)N1CCSC1c1nsc2ccc(-n3c(=O)cc(C(F)(F)F)n(C)c3=O)cc12 (centres unmarked)
Reply | 5.0

* * *

# Test system: CASOB (Cassia obtusifolia)
# PROTOCOL_SUMMARY: Preemergence herbicidal evaluation
# Assay type: in vivo, L.
# APPLIED_CONDITIONS: Rate 0.1250 kg/ha; preemergence; rated 4-5 weeks after treatment
MEASUREMENT_KIND: CASOB preemergence herbicidal rating

>>> measured_result("Cc1ccc(-c2nsc3ccc(-n4c(=O)cc(C(F)(F)F)n(C)c4=O)cc23)s1 [Compound 21]")
0.5
>>> measured_result("COC(=O)COc1ccsc1-c1nsc2ccc(-n3c(=O)cc(C(F)(F)F)n(C)c3=O)cc12 [Compound 22]")
0.0

Turning now to a further record.
Ask | Value lookup for CASOB preemergence herbicidal rating; key = Cc1cccnc1-c1nsc2ccc(-n3c(=O)cc(C(F)(F)F)n(C)c3=O)cc12 [Compound 19]
Reply | 5.7

* * *

# System: AMBEL (Ambrosia artemisifolia)
# PROTOCOL_SUMMARY: Preemergence herbicidal evaluation
# Type: in vivo, L.
# APPLIED_CONDITIONS: Rate 0.2500 kg/ha; rated 4-5 weeks after treatment
MEASUREMENT_KIND: Preemergence herbicidal rating AMBEL
Form: value (number only, do not type unit).

>>> measured_result("Cc1sccc1-c1nsc2ccc(-n3c(=O)cc(C(F)(F)F)n(C)c3=O)cc12")
9.0
>>> measured_result("C[C@@H]1C[C@H](C)OC(c2nsc3ccc(-n4c(=O)cc(C(F)(F)F)n(C)c4=O)cc23)O1 (stereo partly drawn)")
9.0
>>> measured_result("C[C@@H]1OC(c2nsc3ccc(-n4c(=O)cc(C(F)(F)F)n(C)c4=O)cc23)O[C@@H]1C (stereo partly drawn)")
9.0
>>> measured_result("Cc1nn(-c2nsc3ccc(-n4c(=O)cc(C(F)(F)F)n(C)c4=O)cc23)c(C)c1C")
0.0
>>> measured_result("Cn1c(C(F)(F)F)cc(=O)n(-c2cc3c(C4OCCCO4)nsc3cc2F)c1=O")
9.0
>>> measured_result("CCOc1cc(OCC)nc(-c2nsc3ccc(-n4c(=O)cc(C(F)(F)F)n(C)c4=O)cc23)n1")
7.0

Ask | Value lookup for Preemergence herbicidal rating AMBEL; key = Cn1c(C(F)(F)F)cc(=O)n(-c2ccc3snc(C4OCC(CCl)O4)c3c2)c1=O (stereo not drawn)
Reply | 9.0

Ask | Value lookup for Preemergence herbicidal rating AMBEL; key = Cc1cnn(-c2nsc3ccc(-n4c(=O)cc(C(F)(F)F)n(C)c4=O)cc23)c1
Reply | 6.0

Ask | Value lookup for Preemergence herbicidal rating AMBEL; key = Cc1cccnc1-c1nsc2cc(F)c(-n3c(=O)cc(C(F)(F)F)n(C)c3=O)cc12
Reply | 9.0

* * *

# Tested on: IPOHE (Ipomoea hederacea)
# PROTOCOL_SUMMARY: Postemergence herbicidal evaluation
# Assay type: in vivo, (L.) Jacq.
# APPLIED_CONDITIONS: postemergence, rate 0.0620 kg/ha
MEASUREMENT_KIND: IPOHE herbicidal rating
Form: value (number only, do not type unit).

>>> measured_result("Cc1cnn(-c2nsc3ccc(-n4c(=O)cc(C(F)(F)F)n(C)c4=O)cc23)c1 [Compound 59]")
8.0

Ask | Value lookup for IPOHE herbicidal rating; key = C[C@@H]1C[C@H](C)OC(c2nsc3ccc(-n4c(=O)cc(C(F)(F)F)n(C)c4=O)cc23)O1 (some centres unmarked) [Compound 50]
Reply | 9.0

Ask | Value lookup for IPOHE herbicidal rating; key = CSCC1COC(c2nsc3ccc(-n4c(=O)cc(C(F)(F)F)n(C)c4=O)cc23)O1 (centres unmarked) [Compound 84]
Reply | 9.0

Ask | Value lookup for IPOHE herbicidal rating; key = Cn1c(C(F)(F)F)cc(=O)n(-c2ccc3snc(C4OCC(CBr)O4)c3c2)c1=O (centres unmarked) [Compound 79]
Reply | 8.0

Ask | Value lookup for IPOHE herbicidal rating; key = C[C@@H]1OC(c2nsc3cc(F)c(-n4c(=O)cc(C(F)(F)F)n(C)c4=O)cc23)O[C@@H]1C (some centres unmarked) [Compound 66]
Reply | 9.0

Ask | Value lookup for IPOHE herbicidal rating; key = Cn1c(C(F)(F)F)cc(=O)n(-c2ccc3snc(C4OCC(CO)O4)c3c2)c1=O (centres unmarked) [Compound 73]
Reply | 9.0

Ask | Value lookup for IPOHE herbicidal rating; key = CC1CC(C)(C)OC(c2nsc3ccc(-n4c(=O)cc(C(F)(F)F)n(C)c4=O)cc23)O1 (centres unmarked) [Compound 55]
Reply | 9.0

Ask | Value lookup for IPOHE herbicidal rating; key = C[C@@H]1OC(c2nsc3cc(F)c(-n4c(=O)cc(C(F)(F)F)n(C)c4=O)cc23)O[C@@H]1C (some centres unmarked) [Compound 63]
Reply | 9.0
